Values from PubChem BioAssay (NCATS)

- Tested on: CP203
- procedureText: qHTS profiling for inhibitors of Plasmodium falciparum proliferation (AID 504749); note: nearly all actives have a fitted effect of over 60% in size
- experimentalSetup: P. falciparum in erythrocytes, SYBR Green DNA, 72 h; series mostly up to 28.7 µM
Records with an inconclusive call do not appear. Calls of active or inactive are those of the source. Calls come from the whole dose curve; as a rule, active = well fitted inhibition curve with a large enough effect; inconclusive = small, poorly fitted or top-dose-only effect; inactive = flat fitted curve, though single readings scatter.
Pick from active, inactive when you respond.

Here's what some known entries look like.
• C=C[C@@]1(C)C[C@H](OC(=O)CSC(C)(C)CNC(=O)[C@@H](N)C(C)C)[C@@]2(C)C(C)CC[C@@]3(CCC(=O)[C@@H]32)[C@H](C)[C@H]1O (some centres not stated) = active
• NC(=O)OC[C@@H]1[C@H](NC(=O)/C(=N/OCC(=O)O)c2csc(N)n2)C(=O)N1S(=O)(=O)O = inactive
• COC1CC2CCC(C)[C@](O)(O2)C(=O)C(=O)N2CCCCC2C(=O)OC(C(C)CC2CCC(O)C(OC)C2)CC(=O)C(C)/C=C(/C)C(O)C(OC)C(=O)C(C)CC(C)C=CC=C/C=C\1C (some centres not stated) = active
• COC(c1ccccc1)(c1ccccc1)C(Oc1nc(C)cc(C)n1)C(=O)O (configuration not stated) = inactive

Enquiry: Outcome logged for "C=C1CC[C@H](O)C/C1=C/C=C1\CCC[C@]2(C)[C@@H]([C@H](C)CCCC(C)(C)O)CC[C@@H]12" in this assay:
Return: inactive

Enquiry: Outcome logged for CCN(CC)CCOCCOC(=O)C(CC)(CC)c1ccccc1 (tested in a mixture with another compound) in this assay:
Return: active

Enquiry: Outcome logged for C[C@]12CC[C@@H]3c4ccc(O)cc4CC[C@H]3[C@@H]1C[C@H](O)C2O (some centres not stated) in this assay:
Return: inactive

----------
In this section we review reported activity change, negative = inhibition values for a set of compounds.
- procedureText: NFAT Signaling Pathway (AID 444);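 note: carbachol stimulus at about its EC50 of 1 µM final; % is set by controls: 0 for no effect and ±100 for the full control effect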
- experimentalSetup: Jurkat NFAT-bla M1, carbachol, beta-lactamase ratio, 5 h; at 17.2 µM (top of the series) unless noted
Results filed as inconclusive are left out. Calls of active or inactive are those of the source. The call rests on the fitted dose curve; in most records, active means well fitted curve in either direction with a large enough effect (not every such curve was filed as active); inconclusive means small, poorly fitted or top-dose-only effect, or another doubt; inactive means flat fitted curve, though single readings scatter.

Sample answers from the record:
• CCOC(=O)CCc1c(C)c(C#N)c2[nH]c3ccccc3n2c1=O = -0.365% (inactive)
• CC(C)N1CCc2c(sc(N)c2C#N)C1 = -22.4% (inactive)
• COc1ccc(-c2onc(C)c2-c2ccccc2)c(O)c1 = 9.81% (inactive)

Enquiry: # activity change, negative = inhibition lookup, item "O=C(c1cccc(Cl)c1)N1CCN(C(=O)c2ccccc2F)CC1"
Return: 0.199% (inactive)

Enquiry: # activity change, negative = inhibition lookup, item "CCC(=O)Nc1cccc(-c2nnc(SCC(=O)NCc3ccco3)n2C)c1"
Return: 6.34% (inactive)

Enquiry: # activity change, negative = inhibition lookup, item "CCOC(=O)c1c(C(F)(F)C(F)(F)C(F)(F)C(F)(F)F)n[nH]c1C"
Return: -9.51% (inactive)

Enquiry: # activity change, negative = inhibition lookup, item "CSc1nc(Oc2ccc(=O)[nH]n2)nc(N(C)C)n1"
Return: -5.44% (inactive)

Enquiry: # activity change, negative = inhibition lookup, item Cc1cc(=O)oc(C)c1C(=O)NCC1CCCO1 (stereo not given)
Return: -0.802% (inactive)

Enquiry: # activity change, negative = inhibition lookup, item "Cc1nnc(C)n1/N=C/c1cccn1C"
Return: 13.1% (inactive)

----------
- Tested on: CP252
- procedureText: qHTS profiling for inhibitors of Plasmodium falciparum proliferation (AID 504749); note: nearly all actives have a fitted effect of over 60% in size
- experimentalSetup: P. falciparum in erythrocytes, SYBR Green DNA, 72 h; series mostly up to 28.7 µM
Records with an inconclusive call do not appear. The source made the active and inactive calls. The call rests on the fitted dose curve; in most records, active means well fitted inhibition curve with a large enough effect; inconclusive means small, poorly fitted or top-dose-only effect; inactive means flat fitted curve, though single readings scatter.
Pick from 1 = active, 0 = inactive when you respond.

Here's what some known entries look like.
- CCCSS/C(CCO)=C(/C)N(C=O)Cc1cnc(C)nc1N: 0
- CCCC[C@H](O)c1ccccc1: 0
- O=C1Oc2ccccc2C(=O)C1C(CC(O)c1ccc(-c2ccc(Br)cc2)cc1)c1ccccc1 (centres undefined): 0
- CC[C@@H]1/C=C(\C)C[C@H](C)C[C@H](OC)[C@H]2O[C@@](O)(C(=O)C(=O)N3CCCC[C@H]3C(=O)O[C@H](/C(C)=C/[C@@H]3CC[C@H](Cl)[C@H](OC)C3)[C@H](C)[C@@H](O)CC1=O)[C@H](C)C[C@@H]2OC: 0
- C=NC(C(=O)NC1C(=O)N2C1SC(C)(C)C2C(=O)O)c1ccccc1 (centres undefined): 0
- Nc1nc(F)nc2c1ncn2[C@@H]1O[C@H](CO)[C@@H](O)[C@H]1O: 0

Enquiry: Outcome logged for "CCN(CC)CC(=O)Nc1c(C)cc(C)cc1C" in this assay:
Return: 0

Enquiry: Outcome logged for Nc1nc2[nH]cc(CCc3ccc(C(=O)NC(CCC(=O)O)C(=O)O)cc3)c2c(=O)[nH]1 (centres undefined) in this assay:
Return: 1

Enquiry: Outcome logged for "CCCC[C@H]1C(=O)N(c2ccccc2)N(c2ccc(O)cc2)C1=O" in this assay:
Return: 0

Enquiry: Outcome logged for "CN[C@H](C)CCC=C(C)C" in this assay:
Return: 1

Enquiry: Outcome logged for OCC1OC(O)C(O)C(O)C1O (centres undefined) in this assay:
Return: 0

Enquiry: Outcome logged for CC(C)C(=O)OCC(=O)[C@@]12OC(C3CCCCC3)O[C@@H]1CC1C3CCC4=CC(=O)C=C[C@]4(C)C3[C@@H](O)C[C@@]12C (some centres undefined) in this assay:
Return: 1

Enquiry: Outcome logged for C=C(CC[C@@H](C)[C@H]1CCC2[C@]1(C)CC[C@]13C[C@@]14CCC(OC(=O)/C=C/c1ccc(O)c(OC)c1)C(C)(C)[C@@H]4CC[C@@]23C)C(C)C (some centres undefined) in this assay:
Return: 0

Enquiry: Outcome logged for CCN1CCN(C(=O)NC(C(=O)NC2C(=O)N3C(C(=O)O)=C(CSc4nnnn4C)CSC23)c2ccc(O)cc2)C(=O)C1=O (centres undefined) in this assay:
Return: 0

Enquiry: Outcome logged for "C[C@@H](O)[C@@H]1C(=O)N2C(C(=O)O)=C([C@H]3CCCO3)S[C@H]12" in this assay:
Return: 0

Enquiry: Outcome logged for C[C@]12CC[C@@H]3c4ccc(O)cc4CC[C@H]3[C@@H]1CCC2OC(=O)CCC1CCCC1 (some centres undefined) in this assay:
Return: 0

Enquiry: Outcome logged for "CNc1cc(OC)c(C(=O)N[C@@H]2CCN(Cc3ccccc3)[C@H]2C)cc1Cl" in this assay:
Return: 0

Enquiry: Outcome logged for CC(=O)CC(c1ccccc1)C1C(=O)Oc2ccccc2C1=O (centres undefined) in this assay:
Return: 0

Enquiry: Outcome logged for CNC1C(O)C(OC2C(N)CC(N)C(OC3OC(CN)=CCC3N)C2O)OCC1(C)O (centres undefined) in this assay:
Return: 0

----------
- Test system: ATS95
- procedureText: qHTS profiling for inhibitors of Plasmodium falciparum proliferation (AID 504749); note: nearly all actives have a fitted effect of over 60% in size
- experimentalSetup: P. falciparum in erythrocytes, SYBR Green DNA, 72 h; series mostly up to 28.7 µM
Results filed as inconclusive are left out. Activity calls are given as the source filed them. Calls follow the shape of the dose curve; as a rule, active = well fitted inhibition curve with a large enough effect; inconclusive = small, poorly fitted or top-dose-only effect; inactive = flat fitted curve, though single readings scatter.
Pick from active, inactive when you respond.

Here's what some known entries look like.
- CC1(C)OC[C@@H]2O[C@@]3(C(=O)O)OC(C)(C)O[C@@H]3[C@@H]2O1: inactive
- C/C(=C(/CCOC(=O)C(C)C)SS/C(CCOC(=O)C(C)C)=C(\C)N(C=O)Cc1cnc(C)nc1N)N(C=O)Cc1cnc(C)nc1N: inactive

Enquiry: Outcome logged for "C=C(NCc1ccccc1)c1ccccc1O" in this assay:
Return: inactive

Enquiry: Outcome logged for CC1(C)CC1C(=O)N/C(=C/CCCCSCC(N)C(=O)O)C(=O)O (stereo unspecified) in this assay:
Return: inactive

Enquiry: Outcome logged for C/C1=C2/[N-]C(C(CC(N)=O)[C@@]2(C)CCC(=O)NCC(C)OP(=O)([O-])O[C@H]2[C@@H](O)[C@@H](n3cnc4cc(C)c(C)cc43)O[C@@H]2CO)[C@]2(C)N=C(/C(C)=C3N=C(/C=C4N=C1C(CCC(N)=O)C\4(C)C)[C@@H](CCC(N)=O)[C@]\3(C)CC(N)=O)[C@@H](CCC(N)=O)[C@]2(C)CC(N)=O.CC(=O)O.[Co] (stereo partly specified) in this assay:
Return: inactive

----------
- Test system: ICS
- procedureText: qHTS profiling for inhibitors of Plasmodium falciparum proliferation (AID 504749); note: nearly all actives have a fitted effect of over 60% in size
- experimentalSetup: P. falciparum in erythrocytes, SYBR Green DNA, 72 h; series mostly up to 28.7 µM
- Protocol: NIH National Institute of Allergy and Infectious Diseases [NIAID] NIH Chemical Genomics Center [NCGC] […] Because mature erythrocytes lack DNA, only Plasmodium-derived DNA is detected. NCGC Assay Protocol Summary: The SYBR Green viability assay was adapted from a method described previously (Plouffe et al., 2008). […] The following morning, fluorescence intensity at 485(14) nm excitation and 535(25) nm emission wavelengths was measured on an EnVision (Perkin Elmer) plate reader. […]
Inconclusive results are not listed. Activity calls are given as the source filed them. The call rests on the fitted dose curve; in most records, active means well fitted inhibition curve with a large enough effect; inconclusive means small, poorly fitted or top-dose-only effect; inactive means flat fitted curve, though single readings scatter.
Pick from active, inactive when you respond.

- O=C(O)Cc1sc(-c2ccc(Cl)cc2)nc1-c1ccccc1: inactive
- NC(=O)NC(CCC(=O)O)C(=O)O (stereo not given): inactive

Enquiry: Outcome logged for CC1(C)SC2C(NC(=O)C(C(=O)O)c3ccccc3)C(=O)N2C1C(=O)O (stereo not given) in this assay:
Return: inactive

Enquiry: Outcome logged for CCC(C(=O)C(C)C(O)C(C)CCc1ccc(C)c(O)c1C(=O)O)C1OC(CC)(C2CC[C@@](O)(CC)C(C)O2)CC1C (stereo not given in full) in this assay:
Return: active

Enquiry: Outcome logged for "CCN(CC)C(=O)[C@@]1(c2ccccc2)C[C@@H]1CN" in this assay:
Return: inactive
